tested on: Bcl-2 protein (Recombinant Human Bcl-2 Protein) (Homo sapiens)
Construct: purchased Novus NBP2-34889
Sequence (P10415 whole entry): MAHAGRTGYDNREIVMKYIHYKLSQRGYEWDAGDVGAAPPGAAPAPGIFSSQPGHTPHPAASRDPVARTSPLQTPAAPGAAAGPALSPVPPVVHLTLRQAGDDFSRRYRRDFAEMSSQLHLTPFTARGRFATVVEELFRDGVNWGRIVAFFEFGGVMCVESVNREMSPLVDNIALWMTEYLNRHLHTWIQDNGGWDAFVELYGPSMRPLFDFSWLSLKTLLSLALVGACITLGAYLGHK
protocol summary: Binding evaluation of mixture library compounds to Bcl-2 using AS-MS (affinity selection mass spectrometry)
assay conditions: n = 2
Measured ASMS ratio (%) of individual entries

molecule	measurement units	ASMS ratio (%)
CCOc1cncc(-c2ccc(CN3CCN(c4ccc(C(=O)NS(C)(=O)=O)nn4)CC3)c3ccccc23)c1 [B2I092-01]	%	0.3
CCOc1cccc(-c2ccc(CN3CCN(c4ccc(C(=O)NS(=O)(=O)CCC(F)(F)F)cc4)CC3)c(CC)c2)c1 [B2N049-01]	%	0.0
CCOc1cccc(-c2ccccc2CCC(=O)N2CCN(c3ccc(C(=O)NS(=O)(=O)CCC(F)(F)F)cc3)CC2)c1 [B2N033-01]	%	0.0
CCOc1cncc(-c2ccc(CN3CCN(c4ccc(C(=O)NS(=O)(=O)CCC(F)(F)F)cc4)CC3)cc2F)c1 [B2N052-01]	%	−0.5
CCOc1cccc(-c2ccc(C(=O)N3CCN(c4ccc(C(=O)NS(=O)(=O)c5ccc(NCCSc6ccccc6)c(C(F)(F)F)c5)cc4)CC3)cc2F)c1 [B2R027-01]	%	1.2
CCOc1cccc(-c2cc(CN3CCN(c4ccc(C(=O)NS(=O)(=O)C(C)(C)C)cc4)CC3)cc(C(F)(F)F)c2)c1 [B2L061-01]	%	−11.1
CCOc1cccc(-c2ccccc2CN2CCN(c3ccc(C(=O)NS(=O)(=O)CCC(F)(F)F)nn3)CC2)c1 [B2N071-01]	%	0.0
